Data provenance is patent US20120277265A1.

Test system: Salmonella tiphimurium TA100
Test: AMES test, TA100
Conditions: value per plate; Addition of S9: yes
Text: AMES test: The method is adapted from D. M. Maron and B. N. Ames, Mutat. The test involves evaluating the potential of the tested molecules to induce mutation which is reverse to the histidine locus of these lines. These two lines were provided by Dr. Bruce N. Ames (University of California, Berkeley, USA). […] The line TA98 (his D3052) contains a mutation of reading phase (GC) whereas the line TA100 (his G46) contains a substitution of base pair (GC). […]
Entries annotated with measured TA100 Cytotoxicity

Below are worked cases with known answers.
> print(dat)
                                   compound  recorded.value
1  Oc1cccc2ccc(C(F)(F)c3ccc4cccc(O)c4n3)nc12 [Compound 5]        >3000 µg
2  c1cnc2c(Nc3cccc4cccnc34)cccc2c1 [Compound 12, Bis(8-quinoline)amine]        >3000 µg
3  Oc1c(I)cc(Cl)c2cccnc12 [Clioquinol, reference compound]           30 µg

Kindly consider the entry below.
Consider the compound CC(C)(c1ccc2cccc(O)c2n1)c1ccc2cccc(O)c2n1 [Compound 3] . State its measured TA100 Cytotoxicity. >3000 µg
